The values you see were collected from patent US10059712B2.

# measurementTarget: UniProt:P14902
# protocolDescription: Determining inhibitor type and Ki value measurement (Dixon plot)
# Assay type: biochemical
# Parameters: made in house; host or cells: Escherichia coli
# testParameters: plot of S/v-[I]; read-out: Ki (μM) (in vitro)
# Experimental: The IDO inhibitory activity with respect to each compound was detected using the methods described in the literature. […] 100 μl of supernatant was removed from each well and transferred to a new 96-well plate, after which an acetic acid solution of 2% (w/v) p-(dimethylamino)benzaldehyde was added, and the yellow color produced as a result of the resulting reaction with kynurenine was observable at 490 nm in a microplate reader; the experimental results are shown in Table 1.
readoutLabel: Ki (µM)
Report the value in µM with no unit label.

### Prompt Sample CN1CCN(Cc2ccc3nc4n(c(=O)c3c2)-c2ccccc2C4=O)CC1 [Embodiment Example 6] — what was its Ki?
### Response 5.97

###

# measurementTarget: IDO (Homo sapiens)
# protocolDescription: Measurement of IC50 (cells): HEK 293 cells transfected with pcDNA3.1-hIDO plasmid
# Format: cell-based
# Design: expressed in transfected cells; host or cells: HEK 293
# testParameters: as headed in Table 1, column 3; read-out: IC50 (μM) (Cell)
readoutLabel: IC50 (µM)
Report the value in µM with no unit label.

### Prompt Sample CN1CCN(Cc2ccc3nc4n(c(=O)c3c2)-c2ccccc2C4=O)CC1 [Embodiment Example 6] — what was its IC50?
### Response 2.52

###

# measurementTarget: IDO (Homo sapiens, UniProt P14902)
# Sequence (P14902 whole entry): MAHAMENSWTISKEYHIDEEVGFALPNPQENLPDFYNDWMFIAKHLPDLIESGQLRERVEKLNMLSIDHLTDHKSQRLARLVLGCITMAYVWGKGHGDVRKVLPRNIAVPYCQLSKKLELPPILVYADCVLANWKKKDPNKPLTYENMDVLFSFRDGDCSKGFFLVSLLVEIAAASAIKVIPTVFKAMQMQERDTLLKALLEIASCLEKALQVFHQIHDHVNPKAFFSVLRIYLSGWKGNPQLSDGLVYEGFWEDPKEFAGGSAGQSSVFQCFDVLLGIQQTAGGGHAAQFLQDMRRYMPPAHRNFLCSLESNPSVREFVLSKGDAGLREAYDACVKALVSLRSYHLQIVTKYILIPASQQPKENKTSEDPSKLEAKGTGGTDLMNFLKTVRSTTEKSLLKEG
# protocolDescription: Measurement of median effective inhibition concentration IC50 (IDO enzyme)
# Assay type: biochemical
# Design: made in house; host or cells: Escherichia coli
# testParameters: as headed in Table 1, column 4; read-out: IC50
readoutLabel: IC50 (nM)
Report the value in nM with no unit label.

### Prompt Sample CN1CCN(Cc2ccc3nc4n(c(=O)c3c2)-c2ccccc2C4=O)CC1 — what was its IC50?
### Response 970
